Target Under Test: NOP (Homo sapiens, UniProt P41146)
Sequence (P41146 whole entry): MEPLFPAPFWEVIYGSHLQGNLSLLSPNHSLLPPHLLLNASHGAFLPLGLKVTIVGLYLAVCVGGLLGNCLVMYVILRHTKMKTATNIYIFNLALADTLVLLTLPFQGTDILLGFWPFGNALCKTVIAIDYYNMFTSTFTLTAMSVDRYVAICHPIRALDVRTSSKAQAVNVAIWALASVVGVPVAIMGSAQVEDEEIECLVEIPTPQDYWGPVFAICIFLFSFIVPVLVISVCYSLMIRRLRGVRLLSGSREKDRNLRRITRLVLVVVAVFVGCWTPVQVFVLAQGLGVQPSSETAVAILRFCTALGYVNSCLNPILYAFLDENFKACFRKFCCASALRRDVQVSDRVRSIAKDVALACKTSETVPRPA
Assay Procedure: cAMP biosensor assay, NOP agonist mode
Format: cell-based
Measurement Setup: HEK293-CNG cells expressing NOP, agonist mode, 11 point concentration-response; read-out: NOP Agonist EC50
For each record, check the reported EC50: if it is below 3000 nM write Fulfilled, else write Not fulfilled.

Query: Determine whether this compound shows EC50 lower than 3000 nM (ties excluded): c1ccc2c(c1)nc(C1CCNCC1)n2C1CCN(CC2CCCCCCC2)CC1
Result: Not fulfilled

Query: Determine whether this compound shows EC50 lower than 3000 nM (ties excluded): CS(=O)(=O)c1ccc2c(c1)nc([C@@H]1CCNC1)n2C1CCN(CC2CCCCCCC2)CC1
Result: Not fulfilled

Query: Determine whether this compound shows EC50 lower than 3000 nM (ties excluded): c1ccc2c(c1)nc(C1CNC1)n2C1CCN(CC2CCCCC2)CC1
Result: Fulfilled

Query: Determine whether this compound shows EC50 lower than 3000 nM (ties excluded): Fc1ccc2c(c1)nc([C@@H]1CCCNC1)n2C1CCN(CC2CCCCCCC2)CC1
Result: Fulfilled

Query: Determine whether this compound shows EC50 lower than 3000 nM (ties excluded): Cc1ccc2c(c1)nc([C@@H]1CCNC1)n2C1CCN(CC2CCCCCCC2)CC1
Result: Not fulfilled

Query: Determine whether this compound shows EC50 lower than 3000 nM (ties excluded): C1=CC2CC1CC2CN1CCC(n2c(C3CNC3)nc3ccccc32)CC1 (stereo not drawn)
Result: Fulfilled

Query: Determine whether this compound shows EC50 lower than 3000 nM (ties excluded): CC1=C(CN2CCC(n3c(C4CNC4)nc4cc(F)ccc43)CC2)C(C)(C)CCC1
Result: Fulfilled

Query: Determine whether this compound shows EC50 lower than 3000 nM (ties excluded): c1ccc(CN2CCC(n3c([C@@H]4CCNC4)nc4ccccc43)CC2)cc1
Result: Fulfilled

Query: Determine whether this compound shows EC50 lower than 3000 nM (ties excluded): CC1(C)[C@H]2CC=C(CN3CCC(n4c([C@@H]5CCCNC5)nc5ccccc54)CC3)[C@@H]1C2
Result: Fulfilled
